All figures here come from ChEMBL document CHEMBL1201862.

Listing: GI50 of selected compounds
# System: IGROV-1
# protocol.details: NCI tumour cell line growth inhibition, 48 h
Active and inactive are the calls of the source. Rule as the data show it: active = GI50 up to about 1.1 µM and inactive = higher.

>>> meas_value("CC(C)(C)CC(N)=O")
"> 100 µM (inactive)"
>>> meas_value("COC1CC(n2ccc(=O)[nH]c2=O)OC1CO (centres undefined)")
"> 100 µM (inactive)"
>>> meas_value("CC[n+]1cnc(N)c2c(-c3ccc(Cl)cc3)cn(-c3ccc(C)cc3)c21")
"13.1 µM (inactive)"

Dear colleague, I am looking for the recorded GI50 of the following compound: `CCOC(=O)N1CCN(Cc2cc(=O)n3cc(C)ccc3n2)CC1`
> 100 µM (inactive)
